- protocolDetails: Solubility of peptide compounds in buffer formulations (Table 5)
- Assay type: physicochemical
- measurementParameters: aqueous buffer; 50 mM phosphate buffer pH 6.5, 2 h agitation, target 1 mg/ml; read-out: Solubility, Buffer pH 6.5
Numbered stars: 1 amine (or outer) side, 2 acyl side, 3 side chain; on linkers, the order of the positions; unused ones are H or OH. Bridge positions count the residues as written; N and C are the ends. Square brackets hold non-standard residues; d marks the D form. Peptide text beside a SMILES is read from it. * marks the point of attachment. Trp(7-Me) = Cc1cccc2c(C[C@H](N)C(=O)O)c[nH]c12; NH(CH2)9CO = O=C(CCCCCCCCCN[*:1])[*:2]; 2Nal = N[C@@H](Cc1ccc2ccccc2c1)C(=O)O; 3Pal = N[C@@H](Cc1cccnc1)C(=O)O; Thp = NC1(C(=O)O)CCOCC1; Me2NCH2CH2 = CN(C)CC*; Aib = CC(C)(N)C(=O)O; Sar = CNCC(=O)O
experimentalEndpoint: solubility at 2 h (mg/mL)
Write the value in mg/mL as a bare number.

Ask: Record request: solubility at 2 h value, item Cc1cccc2c(C[C@@H]3NC(=O)CCCCCCCCCNC(=O)CC[C@@H](C(=O)N[C@@H](CC(N)=O)C(=O)N[C@@H](Cc4cccnc4)C(=O)N(C)CC(N)=O)NC(=O)C(C)(C)NC(=O)[C@H](Cc4ccc5ccccc5c4)NC(=O)[C@H](Cc4ccc(OCCN(C)C)cc4)NC(=O)C4(CCOCC4)NC(=O)[C@H](CCC(N)=O)NC3=O)c[nH]c12 [compound 5] ([NH(CH2)9CO][Trp(7-Me)]Q[Thp]Y(Me2NCH2CH2)[2Nal][Aib]EN[3Pal][Sar]-NH2; lactam N-8)
Reply: 0.35

---

- protocolDetails: Protease stability in simulated intestinal fluids (FaSSIF) (Table 7)
- Assay type: in vitro ADME
- measurementParameters: fassif with pancreatin, 120 min, 37° C., read-out: Remaining percentage of peptide compound, FaSSIF 120 (min)
Numbered stars: 1 amine (or outer) side, 2 acyl side, 3 side chain; on linkers, the order of the positions; unused ones are H or OH. Bridge positions count the residues as written; N and C are the ends. Square brackets hold non-standard residues; d marks the D form. Peptide text beside a SMILES is read from it. * marks the point of attachment. Lys(Me,(CH2)4NMe(CH2)4CO) = CN(CCCCC(=O)[*:3])CCCCN(C)CCCC[C@H](N[*:1])C(=O)[*:2]; Trp(7-Me) = Cc1cccc2c(C[C@H](N)C(=O)O)c[nH]c12; Trp(1-Me) = Cn1cc(C[C@H](N)C(=O)O)c2ccccc21; Sebacoyl = O=C(CCCCCCCCC(=O)[*:2])[*:1]; 2Nal = N[C@@H](Cc1ccc2ccccc2c1)C(=O)O; Suberoyl = O=C(CCCCCCC(=O)[*:2])[*:1]; 3Pal = N[C@@H](Cc1cccnc1)C(=O)O; AEEEA = NCCOCCOCCOCC(=O)O; Thp = NC1(C(=O)O)CCOCC1; Me2NCH2CH2 = CN(C)CC*; Aib = CC(C)(N)C(=O)O; Sar = CNCC(=O)O
experimentalEndpoint: remaining at 2 h, 1 µM (%)
Write the value in % as a bare number.

See these solved cases before continuing.
>>> measuredresult("Cc1cccc2c(C[C@@H]3NC(=O)CCCCCCC(=O)NCCCC[C@@H](C(=O)N[C@@H](CC(N)=O)C(=O)N[C@@H](Cc4cccnc4)C(=O)N(C)CC(N)=O)NC(=O)C(C)(C)NC(=O)[C@H](Cc4ccc5ccccc5c4)NC(=O)[C@H](Cc4ccc(OCCN(C)C)cc4)NC(=O)C4(CCOCC4)NC(=O)[C@H](CCC(N)=O)NC3=O)c[nH]c12 [compound 12] ([Trp(7-Me)]Q[Thp]Y(Me2NCH2CH2)[2Nal][Aib]KN[3Pal][Sar]-NH2; linker N-7 via Suberoyl)")
77
>>> measuredresult("CN(C)CCOc1ccc(C[C@@H]2NC(=O)C3(CCOCC3)NC(=O)[C@H](CCC(N)=O)NC(=O)[C@H](Cc3cn(C)c4ccccc34)NC(=O)CCCCN(C)CCCCN(C)CCCC[C@@H](C(=O)N[C@@H](CO)C(=O)N[C@@H](Cc3cccnc3)C(=O)N(C)CC(N)=O)NC(=O)C(C)(C)NC(=O)[C@H](Cc3ccc4ccccc4c3)NC2=O)cc1 [compound 40] ([Trp(1-Me)]Q[Thp]Y(Me2NCH2CH2)[2Nal][Aib][Lys(Me,(CH2)4NMe(CH2)4CO)]S[3Pal][Sar]-NH2; lactam N-7)")
93
>>> measuredresult("Cc1cccc2c(C[C@@H]3NC(=O)CCCCCCCCC(=O)NCCCC[C@@H](C(=O)N[C@@H](CC(N)=O)C(=O)N[C@@H](Cc4cccnc4)C(=O)N(C)CC(N)=O)NC(=O)C(C)(C)NC(=O)[C@H](Cc4ccc5ccccc5c4)NC(=O)[C@H](Cc4ccc(OCCN(C)C)cc4)NC(=O)C4(CCOCC4)NC(=O)[C@H](CCC(N)=O)NC3=O)c[nH]c12 [compound 11] ([Trp(7-Me)]Q[Thp]Y(Me2NCH2CH2)[2Nal][Aib]KN[3Pal][Sar]-NH2; linker N-7 via Sebacoyl)")
73
>>> measuredresult("Cc1cccc2c(C[C@@H]3NC(=O)COCCOCCOCCNC(=O)CC[C@@H](C(=O)N[C@@H](CC(N)=O)C(=O)N[C@@H](Cc4cccnc4)C(=O)N(C)CC(N)=O)NC(=O)C(C)(C)NC(=O)[C@H](Cc4ccc5ccccc5c4)NC(=O)[C@H](Cc4ccc(OCCN(C)C)cc4)NC(=O)C4(CCOCC4)NC(=O)[C@H](CCC(N)=O)NC3=O)c[nH]c12 [compound 14] ([AEEEA][Trp(7-Me)]Q[Thp]Y(Me2NCH2CH2)[2Nal][Aib]EN[3Pal][Sar]-NH2; lactam N-8)")
90

Consider the additional compound presented here.
Ask: Record request: remaining at 2 h, 1 µM value, item CC(=O)NCCCC[C@@H]1NC(=O)[C@H](Cc2c[nH]c3c(C)cccc23)NC(=O)CCCCN(C)CCCCN(C)CCCC[C@@H](C(=O)NCC(=O)N[C@@H](Cc2cccnc2)C(=O)N(C)CC(N)=O)NC(=O)C(C)(C)NC(=O)[C@H](Cc2ccc3ccccc3c2)NC(=O)[C@H](Cc2ccc(OCCN(C)C)cc2)NC(=O)C2(CCOCC2)NC1=O [compound 29] ([Trp(7-Me)]K(Ac)[Thp]Y(Me2NCH2CH2)[2Nal][Aib][Lys(Me,(CH2)4NMe(CH2)4CO)]G[3Pal][Sar]-NH2; lactam N-7)
Reply: 95

FYI, the data here is from patent US20260297129A1.
